experiment: Toxicity liver stage against HepG2, at 10uM; format: cell-based; parameters: test concentration 10 uM, cell line HepG2-A16-CD81EGFP; details: human, HepG2-A16-CD81EGFP cells; read-out: INHIBITION
READOUT_TYPE: cytotoxicity at 10 µM (%)

COMPOUND	READOUT_TYPE	OBS_VALUE
COCCOc1ccc(-c2noc([C@@H]3CCCN3C3CCC3)n2)cn1	cytotoxicity at 10 µM	-4.26
Cn1cc(NC(=O)N2CCC(OCc3ccccc3)CC2)ccc1=O	cytotoxicity at 10 µM	-5.75
N#CC1CCN(C(=O)CN2CC(c3ccccc3)CC2=O)CC1 (stereo unspecified)	cytotoxicity at 10 µM	-0.745
CC(C)(C)S(=O)(=O)CCNC(=O)c1ccc2ccccc2c1	cytotoxicity at 10 µM	0.995
Cc1nnc(CN2CCCC(CCc3ccccc3C(F)(F)F)C2)o1 (stereo unspecified)	cytotoxicity at 10 µM	3.67
CN1C(=O)CC(N(C)Cc2nc3ccccc3c(=O)[nH]2)C1=O (stereo unspecified)	cytotoxicity at 10 µM	7.61
CCc1nn(C)c(Cl)c1CN1CCN(c2ccc(Cl)nn2)CC1	cytotoxicity at 10 µM	8.01
CN(CCOCC1CC1)C(=O)Nc1ccc(C#N)c(Cl)c1	cytotoxicity at 10 µM	-11.1
O=C(c1cnc2ccc(F)cc2c1NCc1ccco1)N1CCCCC1	cytotoxicity at 10 µM	9.34
c1cnc(N2CCCC3(CCN(CC4CCC4)C3)C2)nc1 (stereo unspecified)	cytotoxicity at 10 µM	-82.8
COCc1noc(CC2CN(c3ncnc4sc(C)c(C)c34)CCO2)n1 (stereo unspecified)	cytotoxicity at 10 µM	-0.649

====

This listing pairs molecules with measured cytotoxicity at 10 µM.
test: Toxicity liver stage against HepG2, at 10uM; assay type: cell-based; design: test concentration 10 uM, cell line HepG2-A16-CD81EGFP; details: human, HepG2-A16-CD81EGFP cells; read-out: INHIBITION

MOLECULE	cytotoxicity at 10 µM, %
Cc1cnn(CCNCC(O)c2cccc(Br)c2)c1 (centres undefined)	1.66
CN1CCN(Cc2cccc(NCc3ncc[nH]3)c2)CC1	-6.44
Cc1cc(=O)[nH]c(NCCNC(=O)CN2CCCCCC2)n1	3.28
Cc1cccc(CNC2CCN(CCc3ccncc3)CC2)c1C	-9.04
O=C(C[C@@H]1COC[C@H]2CN(C3CCCC3)C[C@@H]12)NCc1cccnc1	6.84
Cc1ccc(CN(Cc2[nH]cnc2C)C2CC(C)(C)NC(C)(C)C2)o1	-3.3
Cc1cc2c(=O)n3c(nc2s1)CCN(C(=O)c1sc(C)nc1C)CC3	-0.579
c1cnn(CCNCc2csc(-c3ccsc3)n2)c1	1.97
O=C(N1CCOCC1)N1CCCC2(CCCNC2)C1 (centres undefined)	0.817
O=C(O)c1ccnc(-c2ccnc(N3CCC(F)(F)CC3)n2)c1	-12.3
COCCOc1cccc(C(=O)N2CCCC(n3cccn3)C2)c1 (centres undefined)	-7.81
O=C(CCO)N1C[C@H]2CN(c3ccccc3)C(=O)[C@H]2C1	1.35
CC(C)N(C)CC(=O)N(C)Cc1nc(C(F)(F)F)cs1	-2.96
CCc1cnc(N2C[C@@H]3C[C@H](C(=O)NCC(C)C)[C@H](C2)O3)nc1	12
Cc1cccc(NC(=O)NC2CCN(C3CCOC3)CC2)c1 (centres undefined)	4.24
Nc1nccc(N2CCNC(C(=O)NCc3ccccn3)C2)n1 (centres undefined)	-48.5
CN(C)CCNCC1(O)CCCN(Cc2cccc(F)c2F)C1=O (centres undefined)	-8.71
COc1ccc(-c2cn[nH]c2)cc1CNC1CCCC1	-45.3
COc1cc(C)nc(N2CCN(C(=O)c3ccccc3C)CC2)n1	-2.18
COc1c(CNC2CCCOc3ccc(F)cc32)c(C(C)C)nn1C (centres undefined)	-5.83
COc1ccc(CN2Cc3cnn(C)c3C(COCC3CC3)C2)cc1 (centres undefined)	14.5
O=c1c2cnc(N3CCOCC3)nc2ccn1-c1ccccc1	-3.12
Cc1csc(NC(=O)c2cnc(C3CCCN3)cn2)n1 (centres undefined)	-41
O=C(c1cccc(CNCC=Cc2ccccc2)c1)N1CCCC1	9.46
